Tested on: in vitro plaque
TEST_NAME: in vitro artificial plaque assay on saliva-coated aluminium plummets (Tests 1, 3, 4 and general statements)
Assay type: cell-based
CONDITION_PARAMETERS: metal salt alone 0.10 % Wt./Vol.; 15% ethanol/water, pH 5
Can you tell me % Reduction for the items I'm about to list?
# output: bare number, implied unit %

For record O.O.O.O.O.O.[Cl-].[Cl-].[Cl-].[Fe+3] [FeCl3.6H2O, reference compound] the listed % Reduction is -38

For record O.O.O.O=[N+]([O-])[O-].O=[N+]([O-])[O-].[Cu+2] [Cu(NO3)2.3H2O, reference compound] the listed % Reduction is -10

For record O.O.O.O.O.O.[Cl-].[Cl-].[Co+2] [CoCl2.6H2O, reference compound] the listed % Reduction is -25

For record O.O.O.O.O.O.[Cl][Ni][Cl] [NiCl2.6H2O, reference compound] the listed % Reduction is -17
